Consider the following compounds; for each one, report its growth AUC.
- System: Bacteroides uniformis
- test.protocol: growth AUC relative to DMSO control (median of replicates) (fraction); higher = more growth (less inhibition), active = hit call of the paper
- condition.description: 20 µM; 24 h
The response must contain the number and no unit.

Please supply the value of reported growth AUC for the item ClC1=C(Cl)C2(Cl)[C@H]3[C@H]4O[C@H]4[C@H](Cl)[C@H]3C1(Cl)C2(Cl)Cl (single isomer, unassigned; isomer a) 0.991

Output growth AUC of O=C(Cc1ccccc1)N/C(=N\OCC1CC1)c1c(C(F)(F)F)ccc(F)c1F 0.912

Supply recorded growth AUC for O=CNC(N1CCN(C(NC=O)C(Cl)(Cl)Cl)CC1)C(Cl)(Cl)Cl (configuration not stated) here. 0.985

Hello, please tell me recorded growth AUC for this one: CN(C)C1CSSSC1.O=C(O)C(=O)O 1.23

Report measured growth AUC; entry is O=[N+]([O-])NC1=NCOCN1Cc1cnc(Cl)s1 0.964

Give the measured growth AUC for COc1ccc(/C(=C/C(=O)N2CCOCC2)c2ccc(F)cc2)cc1OC 0.984

Could you please provide reported growth AUC for CCOP(=O)(NC(C)C)Oc1ccc(SC)c(C)c1 (configuration not stated) ? Thanks! 0.931

Kindly indicate its recorded growth AUC. Item: N#Cc1c[nH]cc1-c1cccc2c1OC(F)(F)O2 0.999

Specify measured growth AUC for CON(C)C(=O)Nc1ccc(Cl)cc1 . 0.999

Respond only with growth AUC recorded for COP(=S)(OC)SCn1nnc2ccccc2c1=O 0.986

Given the compound COCc1cnc(C2=NC(C)(C(C)C)C(=O)N2)c(C(=O)O)c1 (configuration not stated) , write its reported growth AUC. 1.01

Supply measured growth AUC of CO/C=C(/C(=O)OC)c1ccccc1Oc1cc(Oc2ccccc2C#N)ncn1 in your reply. 0.914

Tell us which growth AUC value is on record for COC(=O)c1ccccc1S(=O)(=O)NC(=O)Nc1nc(C)cc(C)n1 1.02

Consider the compound NCP(=O)(O)O and give its recorded growth AUC. 1.02

Give the reported value of growth AUC for this record: Nc1c([N+](=O)[O-])ccc(Oc2ccccc2)c1Cl 0.978

Hello, please tell me recorded growth AUC for this one: COc1cc(OC)n2nc(S(=O)(=O)Nc3c(Cl)ccc(C)c3Cl)nc2n1 0.964

Return value of growth AUC for input CC(C)[C@@H](Nc1ccc(C(F)(F)F)cc1Cl)C(=O)OC(C#N)c1cccc(Oc2ccccc2)c1 (some centres not stated) , no commentary. 1.01

Answer with the recorded growth AUC for the compound listed here: C=CC1(C)OC(=O)N(c2cc(Cl)cc(Cl)c2)C1=O (configuration not stated) 0.99

Given CCNc1nc(Cl)nc(NC(C)C)n1 , respond with its growth AUC. 1.01

Output measured growth AUC for this item: Cc1cc(Cl)ccc1OCC(=O)O.O.[Na] 0.993

Find the measured growth AUC of N#Cc1c(O)c(Cl)c(Cl)c(C#N)c1Cl and report it. 0.784

Identify growth AUC associated with the compound CCOC(=O)CCN(SN(C)C(=O)Oc1cccc2c1OC(C)(C)C2)C(C)C 1.05

====

- System: Coprococcus comes
- test.protocol: growth AUC relative to DMSO control (median of replicates) (fraction); higher = more growth (less inhibition), active = hit call of the paper
- condition.description: 20 µM; 24 h
readout.label: growth AUC
Please respond with just the number, no unit label.

Dear colleague, please send me the reported growth AUC for CCNc1nc(NC(C)C)[nH]c(=O)n1 when you can. 0.992

Report growth AUC, nothing else, for this molecule: COP(=O)(OC)Oc1ccc(SC)c(C)c1 0.991

Query growth AUC for CC(C)N(C(=O)COc1nnc(C(F)(F)F)s1)c1ccc(F)cc1 0.988

Note growth AUC for the molecule shown: CCN(CC)C(=O)C(C)Oc1cccc2ccccc12 (stereo unspecified) 1.01

Tell me its growth AUC given CC(C)(C)c1ccc(CCOc2ncnc3ccccc23)cc1 as the entry. 0.98

State, in one line, measured growth AUC of Cc1c(N)cccc1N 1.01

// Input: CCOP(=S)(OCC)SCS(=O)(=O)C(C)(C)C . Output its growth AUC only. 0.991

Fill in reported growth AUC for this entry: CC1(C)C(C=C(Cl)Cl)C1C(=O)OC(C#N)c1cccc(Oc2ccccc2)c1 (stereo unspecified) 0.945

Output measured growth AUC for this item: CC1(C)C(C=C(Cl)Cl)C1C(=O)OC(C#N)c1ccc(F)c(Oc2ccccc2)c1 (mixture of isomers) 0.981

For the molecule CNC(=O)c1cc(Cl)cc(C)c1NC(=O)c1cc(Br)nn1-c1ncccc1Cl , give its measured growth AUC value. 0.991

Give recorded growth AUC. O=S1OCC2C(CO1)C1(Cl)C(Cl)=C(Cl)C2(Cl)C1(Cl)Cl (stereo unspecified) 1.03
